Entry source: ChEMBL document CHEMBL3397031

test system: A549; assay: Cytotoxicity against human A549 cells after 48 hrs by MTT assay; format: functional, cell-based; settings: A549, 48 h
Exercise: for every item that follows, state its recorded pIC50.
Give bare numbers, as −log10 of the molar value.

1) COc1cc(COCc2cn(Cc3cc(-c4ccccc4)cnc3N3CCOCC3)nn2)cc(OC)c1OC :: 4.08

Batch of 5 compounds: report pIC50 for each.
1. COc1cc(C2=NOC(COCc3cn(Cc4cc(-c5ccc(C)cc5)cnc4Cl)nn3)C2)cc(OC)c1OC (stereo not drawn)
2. COc1cc(COCc2cn(Cc3cc(-c4ccccc4)cnc3N3CCSCC3)nn2)cc(OC)c1OC
3. COc1cc(-c2cc(COCc3cn(Cc4cc(-c5ccc(C)cc5)cnc4N4CCSCC4)nn3)on2)cc(OC)c1OC
4. COc1cc(C2=NOC(COCc3cn(Cc4cc(-c5ccc(C)cc5)cnc4N4CCSCC4)nn3)C2)cc(OC)c1OC (stereo not drawn)
5. COc1cc(COCc2cn(Cc3cc(-c4ccc(C)cc4)cnc3N3CCOCC3)nn2)cc(OC)c1OC

1: 4.94; 2: 4.34; 3: 4.21; 4: 4.36; 5: 4.41

For every item in the list below, what is its measured pIC50?
1. COc1cc2c(c(OC)c1OC)-c1ccc(OC)c(=O)cc1[C@@H](NC(C)=O)CC2 [COLCHICINE]
2. COc1cc(-c2cc(COCc3cn(Cc4cc(-c5ccccc5)cnc4N4CCOCC4)nn3)on2)cc(OC)c1OC

[6.92, 4.41]

----------
target: Tubulin (Bos taurus) (UniProt Q6B856+Q862L2+Q862F3); conditions: at 10 µM;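 further: polymerization of tubulin from bovine brain, tracked by a fluorescence readout over 1 h, reported as percent inhibition of assembly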
Description: Inhibition of bovine brain tubulin polymerization at 10 uM measured for 1 hr by fluorescence assay
So I've got a bunch of compounds here, and I need their inhibition values.
One number for each entry, in %.

Below are worked cases with known answers.
1) COc1cc(COCc2cn(Cc3cc(-c4ccccc4)cnc3Cl)nn2)cc(OC)c1OC :: 18
2) COc1cc(C2=NOC(COCc3cn(Cc4cc(C)cnc4Cl)nn3)C2)cc(OC)c1OC (stereo not given) :: 53
3) COc1cc(-c2cc(COCc3cn(Cc4cc(-c5ccc(C)cc5)cnc4N4CCSCC4)nn3)on2)cc(OC)c1OC :: 15
4) COc1cc(C2=NOC(COCc3cn(Cc4cc(-c5ccc(C)cc5)cnc4Cl)nn3)C2)cc(OC)c1OC (stereo not given) :: 69
5) COc1cc(COCc2cn(Cc3cc(C)cnc3Cl)nn2)cc(OC)c1OC :: 24

Go through the list and state inhibition for each entry.
1. COc1cc(COCc2cn(Cc3cc(-c4ccccc4)cnc3N3CCOCC3)nn2)cc(OC)c1OC
2. COc1cc(-c2cc(COCc3cn(Cc4cc(C)cnc4Cl)nn3)on2)cc(OC)c1OC
3. COc1cc(C2=NOC(COCc3cn(Cc4cc(-c5ccc(C)cc5)cnc4N4CCOCC4)nn3)C2)cc(OC)c1OC (stereo not given)
4. COc1cc(-c2cc(COCc3cn(Cc4cc(-c5ccc(C)cc5)cnc4N4CCOCC4)nn3)on2)cc(OC)c1OC
5. COc1cc(C2=NOC(COCc3cn(Cc4cc(-c5ccccc5)cnc4Cl)nn3)C2)cc(OC)c1OC (stereo not given)
6. COc1cc(C2=NOC(COCc3cn(Cc4cc(-c5ccc(C)cc5)cnc4N4CCSCC4)nn3)C2)cc(OC)c1OC (stereo not given)
7. COc1cc(-c2cc(COCc3cn(Cc4cc(-c5ccccc5)cnc4N4CCOCC4)nn3)on2)cc(OC)c1OC
8. COc1cc(COCc2cn(Cc3cc(-c4ccc(C)cc4)cnc3N3CCSCC3)nn2)cc(OC)c1OC

1. 16
2. 22
3. 27
4. 64
5. 72
6. 22
7. 27
8. 21
